ASSAY_PROTOCOL: Cell death by Annexin-V-APC/PI flow cytometry
Assay type: cell-based, murine
MEASUREMENT_SETUP: L5178Y-R, 2h; read-out: cytotoxic concentration that induces around 50% of cell death (CC50)
QUANTITY_MEASURED: CC50 (µM)
Give bare numbers, in µM.

stdin: Entry CSCC[C@H](NC(=O)[C@@H](NC(=O)[C@@H](NC(=O)[C@H](Cc1ccc(O)cc1)NC(=O)[C@H](Cc1ccccc1)NC(=O)[C@H](CCCNC(=N)N)NC(=O)[C@H](N)CCCCN)C(C)C)C(C)C)C(=O)N[C@@H](Cc1c[nH]c2ccccc12)C(=O)N[C@@H](CCCCN)C(=O)N[C@H](CCCCN)C(=O)O [PKHB1, (D)K-R-F-Y-V-V-M-W-K-(D)K] has what CC50?
stdout: 200
